target: T1, Ala mutant having 3-amino acid substitution, SEQ ID NO: 48; experiment: ELISA, coated peptide
T1 peptide: EENMDDQWMQDEAAAGY
quantity name: OD 490/630 nm
# output: bare number, no unit

Observe how each entry below is paired with its result.
- binder: "G6 (antibody, V domains shown, Chicken variable regions in a mouse chimeric antibody (IgG1); also called anti-PAD4 antibody G6) VH: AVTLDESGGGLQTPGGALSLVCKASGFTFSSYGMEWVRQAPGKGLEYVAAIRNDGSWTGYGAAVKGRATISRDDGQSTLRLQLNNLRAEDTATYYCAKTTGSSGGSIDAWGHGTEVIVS VL: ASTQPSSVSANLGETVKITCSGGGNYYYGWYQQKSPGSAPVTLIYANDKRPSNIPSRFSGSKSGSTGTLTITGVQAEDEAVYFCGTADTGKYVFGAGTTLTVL"
  quantity name: "OD 490/630 nm"
  value reported: 1.85
- binder: "A11 (antibody, V domains shown, Chicken variable regions in a mouse chimeric antibody (IgG1); also called anti-PAD4 antibody A11) VH: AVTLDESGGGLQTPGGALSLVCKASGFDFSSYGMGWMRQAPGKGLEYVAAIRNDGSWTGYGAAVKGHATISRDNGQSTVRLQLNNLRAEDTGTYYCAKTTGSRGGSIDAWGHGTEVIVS VL: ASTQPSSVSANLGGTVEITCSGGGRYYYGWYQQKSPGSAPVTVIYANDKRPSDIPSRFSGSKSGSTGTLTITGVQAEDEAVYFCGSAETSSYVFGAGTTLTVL"
  quantity name: "OD 490/630 nm"
  value reported: 1.87

[Q] Endpoint output: OD 490/630 nm of G8 (antibody, V domains shown, Chicken variable regions in a mouse chimeric antibody (IgG1); also called anti-PAD4 antibody G8) VH: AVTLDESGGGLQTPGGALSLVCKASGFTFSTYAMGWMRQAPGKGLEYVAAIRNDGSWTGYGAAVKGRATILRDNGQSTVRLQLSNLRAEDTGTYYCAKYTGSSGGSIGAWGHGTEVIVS VL: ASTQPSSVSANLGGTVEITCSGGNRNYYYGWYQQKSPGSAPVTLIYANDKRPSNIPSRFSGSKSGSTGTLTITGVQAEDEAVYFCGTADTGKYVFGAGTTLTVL . Value?
[A] 1.88
